pIC50: −log10 of the molar value.
From various publications: pIC50 for Poly [ADP-ribose] polymerase tankyrase-2 (Homo sapiens).
Readout Name: pIC50

[P] Cn1cc(-c2cc3c(ccn3C)c(=O)[nH]2)cn1
[Q] O=c1[nH]c(N2CCN(c3ccccc3F)CC2)nc2[nH]ncc12
From the items above, decide which of P and Q has the lower pIC50 reading. Give the label under which the chosen entry appears. Q
(Q: 6.42, P: 6.87)

[A] Cc1cc(C)n2nc(C)c(C(=O)N[C@H]3CC[C@@]4(CCN(c5ccc(F)cc5Cl)C4=O)CC3)c2n1
[B] O=c1[nH]c(N2CCN(c3c(F)cccc3F)CC2)nc2c1ccn2CC(O)CO (stereo not drawn)
// pick larger pIC50 from pair: A vs B Give the label under which the chosen entry appears. B

[a] Cn1ncc2c(=O)[nH]c(N3CCN(C4CCCC4)CC3)nc21
[b] Cn1ncc2c(=O)[nH]c(N3CCN(c4c(F)cccc4F)CC3)nc21
From the items above, decide which of a and b has the lower pIC50 reading. Give the label under which the chosen entry appears. a
(a: 6.75, b: 7.73)

----------
From various publications: pIC50 for Poly [ADP-ribose] polymerase tankyrase-2 (Homo sapiens).
pIC50: −log10 of the molar value.
Readout Name: pIC50

O=C(N[C@H]1CC[C@H](C(=O)Nc2cnc(C(F)(F)F)cc2Cl)CC1)c1cnn2cccnc12 | 6.77
CNC(=O)c1ncoc1C(=O)N[C@H]1CC[C@H](C(=O)Nc2ccc(F)cc2Cl)CC1 | 6.23
N/C(=N\O)c1ccc2c(=O)[nH]c(-c3ccc(C(F)(F)F)cc3)cn12 | 5.90

[1] CC(C)C1Cc2[nH]c(=O)c3ccsc3c2CO1 (racemic)
[2] O=C(N[C@H]1CC[C@@]2(CCN(c3ccc(F)cc3Cl)C2=O)CC1)c1cnn2ccc(N3CCNCC3)nc12
[3] O=c1[nH]c2c(c3ccccc13)COC(C1CCOC1)C2 (mixture of isomers)
[4] CCc1cc(CC)n2ncc(C(=O)N[C@H]3CC[C@@]4(CCN(c5ccc(F)cc5Cl)C4=O)CC3)c2n1
Put the items in sequence by pIC50, from largest down. Give the labels in the order requested. 2, 4, 3, 1
(2: 8.48, 4: 8.04, 3: 7.46, 1: 6.75)

----------
From various publications: IC50 for Poly [ADP-ribose] polymerase tankyrase-2 (Homo sapiens, UniProt Q9H2K2).
Readout Name: IC50 (nM)

Some entries whose results are on file:
Cn1ncc2c(=O)[nH]c(N3CCN(c4ccccc4C#N)CC3)nc21 | 95.2
CNC(=O)c1[nH]cnc1C(=O)NC12CCC(C(=O)Nc3c(F)cc(F)cc3Cl)(CC1)CC2 | 590
O=C(NC1CC1)c1nc[nH]c1C(=O)N[C@H]1CC[C@@]2(CCCN(c3ccc(F)cc3Cl)C2=O)CC1 | 75
CN(c1ccc(F)cc1Cl)C(=O)[C@H]1CC[C@H](NC(=O)c2cnn3cccnc23)CC1 | 91
CC(C)C1Cc2[nH]c(=O)c3ccc(C4CC4)cc3c2CO1 (racemic) | 196

[1] COCCNC(=O)c1nc[nH]c1C(=O)N[C@H]1CC[C@H](C(=O)Nc2ccc(F)cc2Cl)CC1
[2] CC(=O)c1cnc2c(C(=O)N[C@H]3CC[C@H](C(=O)Nc4ccc(F)cc4Cl)CC3)cnn2c1C
[3] Cn1ncc2c(=O)[nH]c3c(c21)COC(C(C)(C)C)C3 (racemic)
[4] CNc1ccn2ncc(C(=O)N[C@H]3CC[C@@]4(CCN(c5ccc(F)cc5Cl)C4=O)CC3)c2n1
Put the items in sequence by IC50, from largest down. Give the labels in the order requested. 1, 3, 2, 4
(1: 160 nM, 3: 87.7 nM, 2: 25 nM, 4: 2.2 nM)

[P] O=c1[nH]c(-c2ccc(-c3ccc(B(O)O)cc3)cc2O)nc2c1CSCC2
[Q] Cc1cc(NC(=O)[C@H]2CC[C@H](NC(=O)c3cnn4cccnc34)CC2)c(Cl)cn1
// pick larger IC50 from pair: P vs Q Give the label under which the chosen entry appears. Q
(Q: 170 nM, P: 24 nM)

----------
From various publications: IC50 for Poly [ADP-ribose] polymerase tankyrase-2 (Homo sapiens, UniProt Q9H2K2).
Readout Name: IC50 (nM)

Some entries whose results are on file:
O=C(NC[C@H]1CCCO1)c1nc[nH]c1C(=O)N[C@H]1CC[C@H](C(=O)Nc2c(F)cc(F)cc2Cl)CC1 | 76
O=C(NCCC1CC1)c1nc[nH]c1C(=O)N[C@H]1CC[C@H](C(=O)Nc2cc(N3CCOCC3)ccc2Cl)CC1 | 1600
Cn1ccc2c(=O)[nH]c(N3CCN(c4ccc(Cl)cc4)CC3)nc21 | 51
O=c1[nH]c(-c2ccc(C(F)(F)F)cc2)nc2c1ccn2CO | 65

[a] Cn1ncc2c(=O)[nH]c(N3CCN(c4c(Cl)cncc4Cl)CC3)nc21
[b] O=C(NCCN1CCOCC1)c1nc[nH]c1C(=O)N[C@H]1CC[C@H](C(=O)Nc2ccc(F)cc2Cl)CC1
From the items above, decide which of a and b has the lower IC50 reading. Give the label under which the chosen entry appears. b
(b: 19 nM, a: 28.9 nM)

----------
From various publications: IC50 for Poly [ADP-ribose] polymerase tankyrase-2 (Homo sapiens, UniProt Q9H2K2).
Readout Name: IC50 (nM)

CNC(=O)c1nc[nH]c1C(=O)N[C@H]1CC[C@H](C(=O)Nc2cc(OC)c(OC)cc2Cl)CC1 | 110
Cc1cncc2c(=O)[nH]c3c(c12)COC(C(C)(C)C)C3 (racemic) | 25.7
Cc1cc(N2CCC[C@]3(CC[C@@H](NC(=O)c4cnc5cccnn45)CC3)C2=O)c(Cl)cc1F | 80
O=C(CCc1ccccc1)N(Cc1nc2c(c(=O)[nH]1)COCC2)Cc1ccccc1F | 1050
NC(=O)c1nc[nH]c1C(=O)N[C@H]1CC[C@@]2(CCN(c3ccc(F)cc3Cl)C2=O)CC1 | 7.4

[P] Cn1ccc2c(=O)[nH]c(N3CCN(c4c(Cl)cncc4Cl)CC3)nc21
[Q] Cc1cc(C)n2ncc(C(=O)N[C@H]3CC[C@@]4(CCN(c5cccc(Cl)c5)C4=O)CC3)c2n1
[R] CC(C)C1Cc2[nH]c(=O)c3cc(Cl)ccc3c2CO1 (racemic)
[S] O=C(CCc1ccccc1)N(Cc1nc2c(c(=O)[nH]1)COCC2)Cc1ncco1
[T] CC(C)(C)OC(=O)N1CCN(c2ccn3ncc(C(=O)N[C@H]4CC[C@@]5(CCN(c6ccc(F)cc6Cl)C5=O)CC4)c3n2)CC1
List the 5 entries from lowest IC50 to highest IC50 value. Give the labels in the order requested. T, P, R, Q, S
(T: 2.5 nM, P: 24 nM, R: 73.4 nM, Q: 280 nM, S: 1700 nM)

[I] O=c1[nH]c(N2CCN(c3ccccc3F)CC2)nc2c1ccn2CO
[II] Cc1cccc2c(=O)[nH]c3c(c12)COC(C1CCN(C(=O)OC(C)(C)C)CC1)C3 (racemic)
From the items above, decide which of I and II has the lower IC50 reading. Give the label under which the chosen entry appears. II
(II: 23.7 nM, I: 55 nM)

----------
pIC50: −log10 of the molar value.
From various publications: pIC50 for UniProt Q9H2K2.
Readout Name: pIC50

Some entries whose results are on file:
Cn1ncc2c(=O)[nH]c(N3CCC(c4ccc(C(F)(F)F)cc4)CC3)nc21 | 7.17
O=c1[nH]c(-c2ccc(C(F)(F)F)cc2)cn2c(Br)ccc12 | 6.80
Cn1ccc2c(=O)[nH]c(N3CCC(c4ccccc4)C3)nc21 (stereo not shown) | 5.97
CC(C)C1Cc2[nH]c(=O)c3ccc([N+](=O)[O-])cc3c2CO1 (racemic) | 5.57
Cc1cnc2c(C(=O)N[C@H]3CC[C@@]4(CCN(c5ccc(F)cc5Cl)C4=O)CC3)cnn2c1 | 8.48

[P] O=C(N[C@H]1CC[C@@]2(CCCN(c3cc(F)c(F)cc3Cl)C2=O)CC1)c1[nH]cnc1C(=O)N1CC(F)C1
[Q] CC(C)NC(=O)c1nc[nH]c1C(=O)N[C@H]1CC[C@@]2(CCCN(c3ccc(F)cc3Cl)C2=O)CC1
[R] N#Cc1ccc2c(=O)[nH]c(-c3ccc(C(F)(F)F)cc3)cn12
Put the items in sequence by pIC50, from largest down. Give the labels in the order requested. P, Q, R

----------
From various publications: IC50 for Poly [ADP-ribose] polymerase tankyrase-2 (Homo sapiens, UniProt Q9H2K2).
Readout Name: IC50 (nM)

Some entries whose results are on file:
Cn1ncc2c(=O)[nH]c(N3CCN(c4ccc(-c5nnn[nH]5)cc4F)CC3)nc21 | 24.6
CC(C)(OCCO)c1c(F)cc(-c2nc3c(c(=O)[nH]2)CSCC3)cc1F | 90
Cn1ccc2c(=O)[nH]c(N3CCN(c4ccccc4Cl)CC3)nc21 | 33
CN(C)C1CN(C(=O)c2nc[nH]c2C(=O)N[C@H]2CC[C@H](C(=O)Nc3ccc(F)cc3Cl)CC2)C1 | 80
Cc1cc(NC(=O)C23CCC(NC(=O)c4cnc5cccnn45)(CC2)CC3)c(Cl)cc1F | 190
Cn1ncc2c(=O)[nH]c(N3CCN(c4c(F)cc(N)cc4F)CC3)nc21 | 25
O=C(N[C@H]1CC[C@@]2(CCN(c3ccc(F)cc3Cl)C2=O)CC1)c1cnn2c(C(F)(F)F)ccnc12 | 25
Cn1ncc2c(=O)[nH]c(N3CCN(c4ccc(F)cc4F)CC3)nc21 | 47.1

[1] CNC(=O)c1nc[nH]c1C(=O)N[C@H]1CC[C@H](C(=O)Nc2cc(N3CCOCC3)ccc2Cl)CC1
[2] CNC(=O)c1nc[nH]c1C(=O)N[C@H]1CC[C@@]2(CCN(c3cccc(Cl)c3)C2=O)CC1
From the items above, decide which of 1 and 2 has the lower IC50 reading. Give the label under which the chosen entry appears. 2
(2: 89 nM, 1: 7100 nM)

[P] CN1CC2(C1)CN(C(=O)c1nc[nH]c1C(=O)N[C@H]1CC[C@@]3(CCN(c4ccc(F)cc4Cl)C3=O)CC1)C2
[Q] CNC(=O)c1nc[nH]c1C(=O)N[C@H]1CC[C@H](C(=O)Nc2cnccc2Cl)CC1
// pick larger IC50 from pair: P vs Q Give the label under which the chosen entry appears. Q
